tgt: UniProt:P24530
Sequence (whole entry): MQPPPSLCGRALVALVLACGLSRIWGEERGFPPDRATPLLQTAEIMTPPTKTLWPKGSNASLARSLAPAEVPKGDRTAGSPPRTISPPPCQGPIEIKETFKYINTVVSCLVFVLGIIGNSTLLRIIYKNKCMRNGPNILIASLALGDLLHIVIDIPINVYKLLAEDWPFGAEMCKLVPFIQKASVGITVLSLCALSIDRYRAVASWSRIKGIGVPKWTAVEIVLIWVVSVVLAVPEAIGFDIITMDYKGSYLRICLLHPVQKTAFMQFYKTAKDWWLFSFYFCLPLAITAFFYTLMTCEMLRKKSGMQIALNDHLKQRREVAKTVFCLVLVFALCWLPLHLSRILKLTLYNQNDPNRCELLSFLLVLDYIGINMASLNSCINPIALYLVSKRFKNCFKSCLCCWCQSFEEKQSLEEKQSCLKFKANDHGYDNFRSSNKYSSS
test_description: Inhibition of [125I]ET1 binding to CHO cells expressing human Endothelin B receptor at a concentration of 1 uM
Type: cell-based
reported_metric: inhibition (%)

Record excerpt, results attached:
given_smiles: CCOc1ccc2c(c1)[C@@H](c1ccc(OC)cc1OCC(=O)O)N(CC(=O)O)[C@@H]2c1ccc2c(c1)OCO2
reported_metric: inhibition
value: 15

given_smiles: CCOc1ccc2c(c1)[C@@H](c1ccc(OC)cc1OCC(=O)O)N(C(=O)C(=O)O)[C@@H]2c1ccc2c(c1)OCO2
reported_metric: inhibition
value: 11

given_smiles: CCOc1ccc2c(c1)[C@@H](c1cc(OC)c(OC)c(OC)c1OCC(=O)O)N(CC(=O)O)[C@@H]2c1ccc2c(c1)OCO2
reported_metric: inhibition
value: 1

A = CCOc1ccc2c(c1)[C@H](c1cccc(OC)c1OCC(=O)O)N(CC(=O)O)[C@@H]2c1ccc2c(c1)OCO2
B = CCOc1ccc2c(c1)[C@@H](c1ccc(OC)cc1O)N(CC(=O)O)[C@@H]2c1ccc2c(c1)OCO2
In: Of A and B , whose reported inhibition is numerically smaller? Refer to your chosen item by its label in the answer.
Out: B
(B: 4%, A: 31%)

P = CCOc1ccc2c(c1)[C@H](c1ccc(OC)cc1OCc1nn[nH]n1)N(CC(=O)O)[C@@H]2c1ccc2c(c1)OCO2
Q = CCOc1ccc2c(c1)[C@H](c1cc(OC)c(OC)c(OC)c1OCC(=O)O)N(CC(=O)O)[C@@H]2c1ccc2c(c1)OCO2
In: Which numeric inhibition is bigger, that of P or that of Q ? Mark your answer with the label of the selected entry.
Out: P
